assayDetails: S. cerevisiae growth modulation with rapamycin, primary screen, strain BY4716, OD600, 96 h (AID 1091); also: test concentration not given here
reportedConditions: higher = more signal, called active from +8 up or from −8 down
Please use Criterion met whenever z-score is not below -0.06, and Criterion not met whenever it is.

- compound: "CCOC(=O)NN=C1C[C@@H](O)[C@@H](O)[C@@H]2[C@@H]3C(=O)N(c4ccc(F)cc4F)C(=O)[C@@H]3CC[C@@H]12"
  labelClass: "Criterion met"
- compound: "CCOC(=O)[C@H](CC(C)C)NC(=O)CCC1CC(OC(=O)NCCc2ccc(F)cc2)CC2(CCCC(COC(=O)NCCC(C)C)O2)O1 (stereo not given in full)"
  labelClass: "Criterion met"
- compound: "O=C1C[C@@H](O)[C@@H](O)[C@@H]2[C@@H]3C(=O)N(C[C@@H]4CCCO4)C(=O)[C@@H]3CC[C@@H]12"
  labelClass: "Criterion not met"

Prompt: Hi team, for Cc1cc2c(nc1C)CCCCN2CC(C)ON=C1[C@H]2CCn3c(=O)n(-c4ccccc4)c(=O)n3[C@H]2[C@H](O)[C@@H]2O[C@H]12 (stereo not given in full) , is the recorded z-score at or above -0.06?
Response: Criterion met

Prompt: Quick check: does "CO[C@H]1COC(=O)[C@@H]2CCCN2C(=O)CC=C[C@@H](C)[C@H](OC)COC(=O)[C@@H](OCc2ccccc2)C=C[C@@H]1C" have z-score greater than or equal to -0.06?
Response: Criterion met

Prompt: Please tell me: is the compound "O=C1[C@H]2[C@H]3[C@H](O)[C@H](O)CC(=NOC[C@@H](O)COCc4ccco4)[C@H]3CC[C@H]2C(=O)N1C[C@@H]1CCCO1" at or over -0.06 in terms of z-score?
Response: Criterion not met

Prompt: Does the reported z-score for "CO[C@@H]1COC(=O)CC=C[C@@H](C)[C@@H]2C=C[C@H](O)[C@@H](COC(=O)CC=C[C@H]1C)O2" fall at or above the -0.06 mark?
Response: Criterion not met

Prompt: Is z-score for "CCOC(=O)CCN1C(=O)[C@H]2[C@H]3[C@H](O)[C@H](O)CC(=NNC(=O)OCc4ccccc4)[C@@H]3CC[C@H]2C1=O" at or above -0.06?
Response: Criterion not met

Prompt: Is it the case that "COc1cccc([C@@H]2Oc3ccc(OC)cc3C(=O)[C@H]2O)c1" has z-score reaching or exceeding -0.06?
Response: Criterion not met

Prompt: Could you please find out whether "O=C(NN=C1C[C@@H](O)[C@@H](O)[C@@H]2[C@@H]3C(=O)N(C[C@@H]4CCCO4)C(=O)[C@@H]3CC[C@@H]12)OCc1ccccc1" has z-score that meets -0.06 or exceeds it?
Response: Criterion not met

Prompt: Tell me whether z-score is at least -0.06 here: "Cn1c(=O)n2n(c1=O)[C@H]1[C@H](O)[C@@H]3O[C@@H]3C(=NOCc3ccccc3)[C@H]1CC2"
Response: Criterion not met

Prompt: Could you please find out whether "O=C1C[C@@H](O)[C@@H](O)[C@@H]2[C@@H]3C(=O)N(Cc4ccc5c(c4)OCO5)C(=O)[C@@H]3CC[C@H]12" has z-score that meets -0.06 or exceeds it?
Response: Criterion not met

Prompt: Please tell me: is the compound "CC(C)=NO[C@H](C)c1cn([C@H](CO)Cc2ccccc2)nn1" at or over -0.06 in terms of z-score?
Response: Criterion met

Prompt: Test whether the compound "CC(=O)Nc1ccc([C@@H]2N[C@H](C(=O)O)CC[C@H]2C)cc1" records z-score of -0.06 or higher.
Response: Criterion met

Prompt: Check the entry COc1ccc(O[C@H]2C=C[C@@H](c3ccccc3)O[C@@H]2COC(=O)CCC(C)=NOC(C)CN2CCCc3nc(C)c(C)cc32)cc1 (stereo not given in full) : does z-score equal or exceed -0.06?
Response: Criterion not met

Measured values drawn from PubChem BioAssay for this set.
